Target entity: TcCA
Construct: recombinant, purified
Procedure text: stopped-flow CO2 hydration assay
Assay type: biochemical, Trypanosoma cruzi
Measurement parameters: 10 mM HEPES pH 7.4, 10 mM NaClO4, 10.6 nM enzyme, 15 min preincubation
Here, each record is paired with measured Ki data.
Lab note: write values as number then unit, every time.

Recorded results for 6 compounds are shown here.
>  <Compound>
Oc1cccc(O)c1 [compound 3, 3]

>  <Recorded measurement>
32.7 µM

$$$$
>  <Compound>
Oc1c(F)cc(F)cc1F [compound 17, 17]

>  <Recorded measurement>
26.9 µM

$$$$
>  <Compound>
O=C(O)c1ccc(O)cc1 [compound 11, 11]

>  <Recorded measurement>
28.4 µM

$$$$
>  <Compound>
Oc1ccc(O)cc1 [compound 4, 4]

>  <Recorded measurement>
18.5 µM

$$$$
>  <Compound>
Oc1ccc(F)cc1F [compound 15, 15]

>  <Recorded measurement>
21.1 µM

$$$$
>  <Compound>
O=C(O)c1ccccc1O [compound 10, salicylic acid]

>  <Recorded measurement>
4.5 µM

$$$$

Please give the measured Ki for this compound: O=C(O)/C=C/c1ccc(O)cc1 [compound 21, des-hydroxy analog of caffeic acid]
4.8 µM
